# SYSTEM_UNDER_TEST: T1, human B7-H4 expressed on cells (human, UniProt Q7Z7D3 25-282)
# T1 construct: the cell line is named under assay or readout; also called full length human B7-H4 on HEK293 cells; 293T.hB7-H4
# T1 sequence: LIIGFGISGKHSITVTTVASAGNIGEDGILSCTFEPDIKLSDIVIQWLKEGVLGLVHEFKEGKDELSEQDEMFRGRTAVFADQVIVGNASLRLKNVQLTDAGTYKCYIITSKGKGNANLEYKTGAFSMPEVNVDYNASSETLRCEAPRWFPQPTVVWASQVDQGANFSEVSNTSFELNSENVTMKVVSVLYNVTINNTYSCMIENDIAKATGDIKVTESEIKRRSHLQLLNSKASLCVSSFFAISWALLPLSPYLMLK
# TEST_DESCRIPTION: flow cytometry on HEK293.hB7-H4 transfectants, one-site specific binding fit
REPORTED_ENDPOINT: pKd
In textbook form, pKd equals minus log to base ten of the concentration in mol/L.

humanized 6H3 variant 3 (antibody, V domains shown, also called V3; H2B L1B) VH: EVQLVQSGAEMKKPGASVKVSCKASGYTFTDYYMNWVRQAPGQSLEWMGVINPYNGDTTYNQKFQGRVTVAVDKSATTAYMELSSLRSEDTAVYYCARYPESTYWGQGTLVTVSS VL: DVVMTQSPLSLPVTLGQPASISCRSSQSLVHINGNTYLHWYQQRPGQSPRVLIYKVSNRFSGVPDRFSGSGSGTDFTLKISRVEAEDVGVYFCSQSTHVPLTFGGGTKVEIK; 8.22
humanized 6H3 variant 7 (antibody, V domains shown, also called V7; 6H3 V7) VH: EVQLVQSGAEMKKPGASVKVSCKASGYTFTDYYMNWVRQAPGQSLEWIGVINPYNGDTTYNQKFQGRVTVTVDKSATTAYMELSSLRSEDTAVYYCARYPESTYWGQGTLVTVSS VL: DVVMTQSPLSLPVTLGQPASISCRSSQSLVHINGNTYLHWYLQRPGQSPKVLIYKVSNRFSGVPDRFSGSGSGTDFTLKISRVEAEDVGVYFCSQSTHVPLTFGGGTKVEIK; 8.19
humanized 6H3 variant 4 (antibody, V domains shown, also called V4; Variant 4 (antibody)) VH: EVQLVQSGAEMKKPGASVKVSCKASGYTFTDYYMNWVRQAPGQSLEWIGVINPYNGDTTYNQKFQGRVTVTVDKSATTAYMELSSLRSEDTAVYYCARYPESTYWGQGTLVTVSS VL: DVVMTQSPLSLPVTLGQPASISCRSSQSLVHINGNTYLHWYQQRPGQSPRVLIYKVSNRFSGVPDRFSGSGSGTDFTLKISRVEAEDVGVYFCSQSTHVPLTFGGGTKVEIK; 8.28
humanized 6H3 variant 2 (antibody, V domains shown, also called V2; 6H3 V2) VH: EVQLVQSGAEVKKPGASVKVSCKASGYTFTDYYMNWVRQAPGQGLEWIGIINPYNGDTSYNQKFKGRVTLTVDKSTSTAYMELSSLRSEDTAVYYCARYPESTYWGQGTLVTVSS VL: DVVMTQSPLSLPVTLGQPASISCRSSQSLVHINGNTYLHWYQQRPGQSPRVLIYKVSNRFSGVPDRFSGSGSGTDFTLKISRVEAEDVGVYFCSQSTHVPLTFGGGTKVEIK; 8.62

Continue with the binder presented below.
Entry chimeric 6H3 (antibody, V domains shown, Mouse variable regions with constant regions from the human IgG1 heavy chain and human kappa light chain; also called human chimeric 6H3; hc6H3) VH: EVQLQQSGPVLVKPGTSVKMSCKASGYTFTDYYMNWVKQSHGKSLEWIGVINPYNGDTTYNQKFKGKATLTVDKSSSTAYMEVNSLTFEDSAVYYCARYPESTYWGQGTLVTVSA VL: DVVMTQTPLSLPVSLGDQASISCRSSQSLVHINGNTYLHWYLQKPGQSPKVLIYKVSNRFSGVPDRFSGSGSGTDFTLKISRVEAEDLGVYFCSQSTHVPLTFGAGTKLELK — recorded pKd = 8.24
